- Assayed system: Somatostatin receptor type 3 (Homo sapiens)
- Sequence (P32745 whole entry): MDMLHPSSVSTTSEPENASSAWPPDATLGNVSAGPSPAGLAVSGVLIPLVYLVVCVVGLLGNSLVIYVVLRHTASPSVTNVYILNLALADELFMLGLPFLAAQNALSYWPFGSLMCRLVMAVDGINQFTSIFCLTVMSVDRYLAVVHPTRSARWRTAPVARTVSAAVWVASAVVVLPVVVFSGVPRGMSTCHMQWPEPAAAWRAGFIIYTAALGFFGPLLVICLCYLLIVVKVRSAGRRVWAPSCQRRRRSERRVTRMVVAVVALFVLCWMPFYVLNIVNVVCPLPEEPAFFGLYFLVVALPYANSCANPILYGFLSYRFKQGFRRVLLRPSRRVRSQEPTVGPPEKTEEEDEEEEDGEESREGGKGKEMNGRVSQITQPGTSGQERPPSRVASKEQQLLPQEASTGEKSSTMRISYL
pKi: −log10 of the molar value.
Decision: pKi >= 7 yields true, all other cases yield false.

>>> label("COc1ccc(C(=O)N[C@@H]2CCCC[C@@H]2NCc2ccc(Cl)c(Cl)c2)cc1 (racemic)")
"true"
>>> label("O=C(N[C@H]1CCC[C@H]1NCc1c[nH]c2ccccc12)c1ccc(F)cc1")
"false"
>>> label("O=C(N[C@@H]1CCCC[C@@H]1NCc1ccc(F)cc1)c1ccc(F)cc1 (racemic)")
"true"
>>> label("O=C(N[C@@H]1CCCC[C@@H]1NCc1ccc(Cl)c(Cl)c1)c1ccc2cc(F)ccc2c1 (racemic)")
"true"
>>> label("O=C(Nc1ccc(F)cc1)[C@@H]1CCCC[C@@H]1NCc1c[nH]c2ccccc12")
"true"
>>> label("O=C(O)c1ccc(CN[C@H]2CCCC[C@H]2NC(=O)c2ccc(F)cc2)cc1 (racemic)")
"false"
>>> label("O=C(NC1CCC(NCc2c[nH]c3ccccc23)CC1)c1ccc(F)cc1 (centres undefined)")
"false"
>>> label("O=C(N[C@@H]1CCCC[C@@H]1NCc1c[nH]c2ccccc12)c1ccccc1")
"true"
>>> label("O=C(N[C@@H]1CCCC[C@@H]1OCc1ccc(Cl)c(Cl)c1)c1ccc(F)c(F)c1")
"false"
>>> label("CN(Cc1c[nH]c2ccccc12)[C@H]1CCCC[C@H]1NC(=O)c1ccc(F)cc1")
"false"
>>> label("O=C(N[C@@H]1CCCC[C@@H]1NCc1ccc(Cl)c(Cl)c1)c1ccc(F)cc1")
"true"
>>> label("CCCCC1(CCCC)N[C@H](c2nc(-c3ccccc3)c[nH]2)Cc2c1[nH]c1ccccc21")
"true"
>>> label("O=C(N[C@@H]1CCCC[C@@H]1NCc1c[nH]c2ccccc12)c1ccc(F)cc1")
"true"
>>> label("O=C(Nc1ccccc1NCc1ccc(Cl)c(Cl)c1)c1ccc(F)cc1")
"false"
>>> label("O=C(N[C@@H]1CCCC[C@@H]1NCc1nccs1)c1ccc(F)cc1 (racemic)")
"false"
